Property: μ (binding on the μ opioid receptor, % inhibition); scope: individual compounds
- test.target: human μ opiate receptor (Homo sapiens, UniProt P35372)
- Construct: purchased PerkinElmer Life Sciences, Zaventem, Belgium RB-HOM; host or cells: CHO-K1 cells (membrane preparation)
- Sequence (P35372 whole entry): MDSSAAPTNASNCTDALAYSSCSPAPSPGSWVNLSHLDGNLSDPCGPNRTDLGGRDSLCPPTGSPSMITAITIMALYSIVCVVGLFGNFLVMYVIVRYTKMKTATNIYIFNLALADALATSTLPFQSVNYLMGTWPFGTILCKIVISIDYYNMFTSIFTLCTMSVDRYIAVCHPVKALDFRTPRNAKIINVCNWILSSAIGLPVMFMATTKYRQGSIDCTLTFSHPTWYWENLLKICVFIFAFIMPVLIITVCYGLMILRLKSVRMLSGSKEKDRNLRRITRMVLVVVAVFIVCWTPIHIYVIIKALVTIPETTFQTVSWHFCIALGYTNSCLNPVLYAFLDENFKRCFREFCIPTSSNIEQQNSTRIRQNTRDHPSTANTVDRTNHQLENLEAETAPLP
- experiment.summary: Affinity for the human μ opiate receptor ([3H]-naloxone displacement, CHO-K1 receptor membrane preparation, SPA)
- Format: binding
- test.parameters: test concentration of 1 μM
test.readout: μ (binding on the μ opioid receptor, % inhibition) (%)

compound | observed
COC(=O)C(=O)NCCC1CCC(C(c2ccccc2)N(C)C)CC1 (stereo not drawn) | 11
CN(C)C(c1ccc(Cl)cc1)C1CCC(CCNC(=O)COCCN(C)S(=O)(=O)c2c(Cl)cc(Cl)cc2Cl)CC1 (stereo not drawn) | 54
CN(C)C(c1ccc(Cl)cc1)C1CCC(CCNC(=O)COC2CCN(S(=O)(=O)c3ccccc3)C2)CC1 (stereo not drawn) | 53
CN(C)C(c1ccc(Cl)cc1)C1CCC(CNC(=O)COCCN(C)S(=O)(=O)c2c(Cl)cccc2Cl)CC1 (stereo not drawn) | 77
COc1ccc(S(=O)(=O)N(C)CCOCC(=O)NCCC2CCC(C(c3ccc(Cl)cc3)N(C)C)CC2)cc1OC (stereo not drawn) | 63
CN(C)C(c1ccccc1)C1CCC(CNC(=O)COCCC2CCN(S(=O)(=O)c3ccccc3)CC2)CC1 (stereo not drawn) | 32
COc1ccc(S(=O)(=O)N2CCC(OCC(=O)NCCC3CCC(C(c4cccc(F)c4)N(C)C)CC3)C2)cc1OC (stereo not drawn) | 82
COc1cc(C)c(S(=O)(=O)N(CCOCC(=O)NCCC2CCC(C(c3cccc(F)c3)N(C)C)CC2)Cc2ccccc2)c(C)c1 (stereo not drawn) | 71
COc1cc(C)c(S(=O)(=O)N2CCC(CCOCC(=O)NCCC3CCC(C(c4ccc(F)cc4)N(C)C)CC3)CC2)c(C)c1C (stereo not drawn) | 33
CC(Oc1ccccc1)C(=O)NCCC1CCC(C(c2cccs2)N(C)C)CC1 (stereo not drawn) | 72
CN(C)C(c1ccccc1)C1CCC(CNC(=O)COC2CCN(S(=O)(=O)c3ccc(F)cc3)C2)CC1 (stereo not drawn) | 82
CN(C)C(c1cccc(F)c1)C1CCC(NC(=O)COCCN(C)S(=O)(=O)c2cccc(C(F)(F)F)c2)CC1 (stereo not drawn) | 74
CN(C)C(c1cccc(F)c1)C1CCC(CCNC(=O)COCCC2CCN(S(=O)(=O)c3ccccc3)CC2)CC1 (stereo not drawn) | 29
COc1ccc(S(=O)(=O)N2CCCCC2CCOCC(=O)NCCC2CCC(C(c3ccc(Cl)cc3)N(C)C)CC2)cc1 (stereo not drawn) | 59
CN(C)C(c1cccc(F)c1)C1CCC(CCNC(=O)COC2CCN(S(=O)(=O)c3ccc(Cl)cc3)C2)CC1 (stereo not drawn) | 75
